- experiment: Cytotoxicity against human PacaS1 cells assessed as reduction in cell viability incubated for 72 hrs by XTT assay
- Format: functional, cell-based
- condition: PacaS1, 72 h
Note to self: IC50 under 4 µM means yes, ties and anything higher get no.

sampleSmiles: CCc1c(CO)c(CO)c2c3ccccc3c3ccccc3n12
group: no

sampleSmiles: Cc1c(COC(=O)NC(C)C)c(COC(=O)NC(C)C)c2c3ccccc3c3ccccc3n12
group: yes

sampleSmiles: CCc1c(CO)c(CO)c2n1Cc1c(c3ccccc3c3ccccc13)C2
group: yes

sampleSmiles: Cc1c(CO)c(CO)c2n1Cc1c(c3ccccc3c3ccccc13)C2
group: yes

sampleSmiles: CCNC(=O)OCc1cn2c3ccccc3c3ccccc3c2c1COC(=O)NCC
group: no

sampleSmiles: CCNC(=O)OCc1c(COC(=O)NCC)c2c3ccccc3c3ccccc3n2c1CC
group: no

sampleSmiles: CCNC(=O)OCc1c(COC(=O)NCC)c2c3ccccc3c3ccccc3n2c1C
group: yes

sampleSmiles: CCc1c(COC(=O)NC(C)C)c(COC(=O)NC(C)C)c2c3ccccc3c3ccccc3n12
group: no

sampleSmiles: Cc1c(CO)c(CO)c2c3ccccc3c3ccccc3n12
group: yes

sampleSmiles: CC(C)NC(=O)OCc1cn2c3ccccc3c3ccccc3c2c1COC(=O)NC(C)C
group: no

sampleSmiles: OCc1c(CO)c(-c2ccccc2)n2c1Cc1c(c3ccccc3c3ccccc13)C2
group: no

sampleSmiles: CC(C)NC(=O)OCc1c(COC(=O)NC(C)C)c2c3ccccc3c3ccccc3n2c1-c1ccccc1
group: no

sampleSmiles: CCNC(=O)OCc1c(COC(=O)NCC)c2c3ccccc3c3ccccc3n2c1-c1ccccc1
group: no

sampleSmiles: OCc1cn2c3ccccc3c3ccccc3c2c1CO
group: yes

sampleSmiles: OCc1c(CO)c2c3ccccc3c3ccccc3n2c1-c1ccccc1
group: no

* * *

- Test system: CEM-VLB
- experiment: Cytotoxicity against human CEM-VLB cells assessed as reduction in cell viability incubated for 72 hrs by XTT assay
- Assay type: functional, cell-based

compound: COc1ccc(-c2c(CO)c(CO)c3c4ccccc4c4ccccc4n23)cc1
targetUnderTest: CEM-VLB
IC50, nM: 4770
--
compound: Cc1c(CO)c(CO)c2c3ccccc3c3ccccc3n12
targetUnderTest: CEM-VLB
IC50, nM: 550
--
compound: OCc1c(CO)c(-c2ccc(F)cc2)n2c1Cc1c(c3ccccc3c3ccccc13)C2
targetUnderTest: CEM-VLB
IC50, nM: 6140
--
compound: OCc1c(CO)c2c3ccccc3c3ccccc3n2c1-c1ccccc1
targetUnderTest: CEM-VLB
IC50, nM: 10900
--
compound: CCNC(=O)OCc1c(COC(=O)NCC)c2c3ccccc3c3ccccc3n2c1-c1ccc(OC)cc1
targetUnderTest: CEM-VLB
IC50, nM: 2850
--
compound: Cc1c(CO)c(CO)c2n1Cc1c(c3ccccc3c3ccccc13)C2
targetUnderTest: CEM-VLB
IC50, nM: 340
--
compound: OCc1cn2c3ccccc3c3ccccc3c2c1CO
targetUnderTest: CEM-VLB
IC50, nM: 380
--
compound: CC[C@]1(O)C[C@@H]2CN(CCc3c([nH]c4ccccc34)[C@@](C(=O)OC)(c3cc4c(cc3OC)N(C)[C@H]3[C@@](O)(C(=O)OC)[C@H](OC(C)=O)[C@]5(CC)C=CCN6CC[C@]43[C@@H]65)C2)C1 [VINBLASTINE]
targetUnderTest: CEM-VLB
IC50, nM: 392
--
compound: CCNC(=O)OCc1c(COC(=O)NCC)c2c3ccccc3c3ccccc3n2c1C
targetUnderTest: CEM-VLB
IC50, nM: 370
--
compound: CCc1c(CO)c(CO)c2c3ccccc3c3ccccc3n12
targetUnderTest: CEM-VLB
IC50, nM: 2890
--
compound: CC(C)NC(=O)OCc1c(COC(=O)NC(C)C)c2c3ccccc3c3ccccc3n2c1-c1ccccc1
targetUnderTest: CEM-VLB
IC50, nM: 4480
--
compound: COc1ccc(-c2c(COC(=O)NC(C)C)c(COC(=O)NC(C)C)c3c4ccccc4c4ccccc4n23)cc1
targetUnderTest: CEM-VLB
IC50, nM: 2760
--
compound: CCNC(=O)OCc1c(COC(=O)NCC)c2c3ccccc3c3ccccc3n2c1-c1ccc(F)cc1
targetUnderTest: CEM-VLB
IC50, nM: 3400
--
compound: CCNC(=O)OCc1c(COC(=O)NCC)c2c3ccccc3c3ccccc3n2c1-c1ccccc1
targetUnderTest: CEM-VLB
IC50, nM: 2480
--
compound: Cc1c(COC(=O)NC(C)C)c(COC(=O)NC(C)C)c2c3ccccc3c3ccccc3n12
targetUnderTest: CEM-VLB
IC50, nM: 340
--
compound: CCc1c(CO)c(CO)c2n1Cc1c(c3ccccc3c3ccccc13)C2
targetUnderTest: CEM-VLB
IC50, nM: 1080
--
compound: OCc1c(CO)c(-c2ccccc2)n2c1Cc1c(c3ccccc3c3ccccc13)C2
targetUnderTest: CEM-VLB
IC50, nM: 3660
--
compound: COc1ccc(-c2c(CO)c(CO)c3n2Cc2c(c4ccccc4c4ccccc24)C3)cc1
targetUnderTest: CEM-VLB
IC50, nM: 2830
--
compound: CCNC(=O)OCc1c(COC(=O)NCC)c2c3ccccc3c3ccccc3n2c1CC
targetUnderTest: CEM-VLB
IC50, nM: 1680
--
compound: CCNC(=O)OCc1cn2c3ccccc3c3ccccc3c2c1COC(=O)NCC
targetUnderTest: CEM-VLB
IC50, nM: 1240
--
compound: CC(C)NC(=O)OCc1cn2c3ccccc3c3ccccc3c2c1COC(=O)NC(C)C
targetUnderTest: CEM-VLB
IC50, nM: 2210
--
compound: OCc1c(CO)c2c3ccccc3c3ccccc3n2c1-c1ccc(F)cc1
targetUnderTest: CEM-VLB
IC50, nM: 6440
--
compound: CCc1c(COC(=O)NC(C)C)c(COC(=O)NC(C)C)c2c3ccccc3c3ccccc3n12
targetUnderTest: CEM-VLB
IC50, nM: 1550
--
compound: CC(C)NC(=O)OCc1c(COC(=O)NC(C)C)c2c3ccccc3c3ccccc3n2c1-c1ccc(F)cc1
targetUnderTest: CEM-VLB
IC50, nM: 3170

* * *

- Test system: NCI-H1650
- experiment: Cytotoxicity against human NCI-H1650 cells assessed as reduction in cell viability incubated for 72 hrs by XTT assay
- Assay type: functional, cell-based
- condition: NCI-H1650, 72 h
testReadout: log10 IC50 (log10 of the value in µM)

sampleSmiles: CCNC(=O)OCc1c(COC(=O)NCC)c2c3ccccc3c3ccccc3n2c1C
reportedValue: 0.65
--
sampleSmiles: OCc1c(CO)c2c3ccccc3c3ccccc3n2c1-c1ccccc1
reportedValue: 1.59
--
sampleSmiles: CCNC(=O)OCc1c(COC(=O)NCC)c2c3ccccc3c3ccccc3n2c1CC
reportedValue: 1.00
--
sampleSmiles: Cc1c(CO)c(CO)c2n1Cc1c(c3ccccc3c3ccccc13)C2
reportedValue: 0.43
--
sampleSmiles: CC(C)NC(=O)OCc1cn2c3ccccc3c3ccccc3c2c1COC(=O)NC(C)C
reportedValue: 0.98
--
sampleSmiles: CC(C)NC(=O)OCc1c(COC(=O)NC(C)C)c2c3ccccc3c3ccccc3n2c1-c1ccccc1
reportedValue: 1.21
--
sampleSmiles: CCc1c(CO)c(CO)c2n1Cc1c(c3ccccc3c3ccccc13)C2
reportedValue: 0.38
--
sampleSmiles: CCNC(=O)OCc1c(COC(=O)NCC)c2c3ccccc3c3ccccc3n2c1-c1ccccc1
reportedValue: 1.26
--
sampleSmiles: OCc1cn2c3ccccc3c3ccccc3c2c1CO
reportedValue: 0.57
--
sampleSmiles: Cc1c(COC(=O)NC(C)C)c(COC(=O)NC(C)C)c2c3ccccc3c3ccccc3n12
reportedValue: 0.71
--
sampleSmiles: CCc1c(COC(=O)NC(C)C)c(COC(=O)NC(C)C)c2c3ccccc3c3ccccc3n12
reportedValue: 1.01
--
sampleSmiles: Cc1c(CO)c(CO)c2c3ccccc3c3ccccc3n12
reportedValue: 0.65
--
sampleSmiles: CCNC(=O)OCc1cn2c3ccccc3c3ccccc3c2c1COC(=O)NCC
reportedValue: 0.76
--
sampleSmiles: CCc1c(CO)c(CO)c2c3ccccc3c3ccccc3n12
reportedValue: 1.13
--
sampleSmiles: OCc1c(CO)c(-c2ccccc2)n2c1Cc1c(c3ccccc3c3ccccc13)C2
reportedValue: 0.90
